# System: Rattus norvegicus
# PROCEDURE SUMMARY: Carcinogenic activity on all sites after oral administration
# Assay type: functional, organism-based
QUANTITY KIND: Activity

* Cc1cc(-c2ccccc2C)ccc1N | Carcinogenic activity
* CC(=O)N(C(C)=O)c1ccc2c(c1)Cc1ccccc1-2 | Carcinogenic activity
* Cc1cc(-c2ccccc2)ccc1N | Carcinogenic activity
* CC(=O)Nc1ccc2c(c1)Cc1ccc(F)cc1-2 | Carcinogenic activity
* NCC(=O)Nc1ccc2c(c1)-c1ccccc1C2 | Carcinogenic activity
* Nc1ccc2c(c1)CCc1ccccc1-2 | Carcinogenic activity
* ONc1ccc(/C=C/c2ccccc2)cc1 | Carcinogenic activity
* CC(=O)Nc1cc2c(cc1I)-c1ccccc1C2 | Carcinogenic activity
* Nc1ccc(-c2ccc(N)c(Cl)c2)cc1Cl | Carcinogenic activity
* CN(C)c1ccc2c(c1)Cc1ccccc1-2 | Carcinogenic activity
* [O-][n+]1ccc(NO)c2ccccc21 | Carcinogenic activity
* Cn1cnc([N+](=O)[O-])c1Sc1ncnc2[nH]cnc12 | Carcinogenic activity
* CNc1ccc2c(c1)Cc1ccccc1-2 | Carcinogenic activity
* CC(=O)Nc1ccc(-c2ccccc2)cc1 | Carcinogenic activity

Data credit: ChEMBL document CHEMBL1121791
